- system tested: T1, monkey MSLN on HEK293T-monkey MSLN recombinant cells (monkey)
- T1 construct: Full-length precursor as transfected; processing on the cell is not described; also called HEK293-monkey MSLN
- T1 chain: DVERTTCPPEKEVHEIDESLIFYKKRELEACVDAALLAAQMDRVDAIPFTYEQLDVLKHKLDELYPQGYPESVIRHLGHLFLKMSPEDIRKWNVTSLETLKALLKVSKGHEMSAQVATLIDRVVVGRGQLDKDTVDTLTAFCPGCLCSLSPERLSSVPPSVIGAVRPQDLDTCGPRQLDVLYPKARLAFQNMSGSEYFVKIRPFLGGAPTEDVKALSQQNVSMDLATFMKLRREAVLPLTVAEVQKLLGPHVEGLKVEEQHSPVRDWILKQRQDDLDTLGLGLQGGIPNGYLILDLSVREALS
- assay protocol: FACS, HEK293T-monkey MSLN cells

{"columns": ["binder", "Maximum_MFI"],
 "data": [
  ["F2.39.3-H5 (scFv, not shown: small tags and cut ends, also called S009-F2.39.3 humanized antibody VH2 + VL1) scFv: EVQLVQSGAEVKKPGASVKVSCKASGYTFTNYWMHWVRQAPGQGLEWMGNINPSSGDSYYNERFMSRVTMTVDKSTSTAYMELSSLRSEDTAVYYCARSGGLWLAFWGQGTLVTVSSGGGGSGGGGSGGGGSDIVMTQSPDSLAVSLGERATINCKSSQTLLNSVSQNNYLAWYQQKPGQSPKLLIYFASTRESGVPDRFSGSGSGTDFTLTISSLQAEDVAVYYCQQHYRTPYTFGGGTKVEIK", "22500 MFI"],
  ["F2.23.12-H8 (scFv, not shown: small tags and cut ends, also called S009-F2.23.12 humanized antibody VH2 + VL4) scFv: EVQLVQSGAEVKKPGASVKVSCKASGYTFTNYWMHWVRQAPGQGLEWMGNINPSNGGPYYNERFRSRVTMTVDKSTSTAYMELSSLRSEDTAVYYCARPYYGSSYGYFDYWGQGTTVTVSSGGGGSGGGGSGGGGSDIQMTQSPSSLSASVGDRVTITCKASQDINKYIAWYQHKPGKAPKLLIHYTSELQPGVPSRFSGSGSGRDYTFTISSLQPEDIATYYCLQYANPLRTFGGGTKVEIK", "14700 MFI"],
  ["F2.23.12-H4 (scFv, not shown: small tags and cut ends, also called S009-F2.23.12 humanized antibody VH1 + VL4) scFv: EVQLVQSGAEVKKPGASVKVSCKASGYTFTNYWMHWVRQAPGQGLEWMGNINPSNGGPYYNERFRSRVTMTVDKSTSTVYMELSSLRSEDTAVYYCARPYYGSSYGYFDYWGQGTTVTVSSGGGGSGGGGSGGGGSDIQMTQSPSSLSASVGDRVTITCKASQDINKYIAWYQHKPGKAPKLLIHYTSELQPGVPSRFSGSGSGRDYTFTISSLQPEDIATYYCLQYANPLRTFGGGTKVEIK", "14500 MFI"],
  ["F2.23.12-H1 (scFv, not shown: small tags and cut ends, also called S009-F2.23.12 humanized antibody VH1 + VL1) scFv: EVQLVQSGAEVKKPGASVKVSCKASGYTFTNYWMHWVRQAPGQGLEWMGNINPSNGGPYYNERFRSRVTMTVDKSTSTVYMELSSLRSEDTAVYYCARPYYGSSYGYFDYWGQGTTVTVSSGGGGSGGGGSGGGGSDIQMTQSPSSLSASVGDRVTITCKASQDINKYIAWYQQKPGKAPKLLIHYTSELQPGVPSRFSGSGSGTDFTFTISSLQPEDIATYYCLQYANPLRTFGGGTKVEIK", "16000 MFI"]
]}
